Hi! I'm sharing some IC50 results obtained with aggrecanase-1 (Homo sapiens, UniProt O75173).

What does the data say about its IC50? Entry: O=C(O)CN([C@]1(C(=O)O)C[C@H]1c1cc(Cl)ccc1C(F)(F)F)S(=O)(=O)c1ccc(-c2ccc(Cl)cc2)cc1 (relative stereo)
< 1000 nM

What does the data say about its IC50? Entry: N#Cc1cccc([C@@H]2C[C@@]2(C(=O)O)N(CC(=O)O)S(=O)(=O)c2ccc(-c3ccc(Cl)cc3)cc2)c1 (relative stereo)
< 100 nM

What does the data say about its IC50? Entry: O=C(O)c1cccc(CN([C@]2(C(=O)O)C[C@H]2c2cccc(OCCN3CCCC3)c2)S(=O)(=O)c2ccc(-c3ccc(Cl)cc3)cc2)c1 (relative stereo)
< 1000 nM

What does the data say about its IC50? Entry: CC(C)(C)OC(=O)N1CCC([C@H]2C[C@]2(C(=O)O)N(Cc2cccc(C(=O)O)c2)S(=O)(=O)c2ccc(-c3ccc(Cl)cc3)cc2)CC1 (relative stereo)
< 1000 nM

What does the data say about its IC50? Entry: O=C(O)[C@@]12C[C@]1(c1ccccc1)CCCN2S(=O)(=O)c1ccc(-c2cc(C(F)(F)F)on2)s1 (relative stereo)
≥ 1000 nM

---

Biological target: Recombinant Human MMP-13 (Homo sapiens)
Test: MMP-13 inhibition, MMP-13 specific fluorescent substrate with quencher
Conditions: synthetic substrate 7-MCA-Pro-CHA-Gly-NVal-His-Ala-DPA, 25° C. for 1 h; read-out: Experimental Example 3 IC50 MMP13
pIC50: −log10 of the molar value.
value_type: pIC50

Can you look up pIC50 on Recombinant Human MMP-13 (Homo sapiens) for Nc1nnn(CCN([C@]2(C(=O)O)C[C@H]2c2ccccc2)S(=O)(=O)N2CCN(c3ccc(C(F)(F)F)cc3)CC2)n1 (relative stereo) ?
≤ 5.00

Can you look up pIC50 on Recombinant Human MMP-13 (Homo sapiens) for O=C(O)[C@@]12C[C@]1(c1ccccc1)CCCN2S(=O)(=O)c1ccc(-c2ccc(Cl)cc2)s1 (relative stereo) ?
≤ 6.00

Can you look up pIC50 on Recombinant Human MMP-13 (Homo sapiens) for CN([C@]1(C(=O)O)C[C@H]1c1ccccc1)S(=O)(=O)c1ccc(-c2ccc(Cl)cc2)s1 ?
≤ 6.00

---

Molecular target: aggrecanase-1 (Homo sapiens, UniProt O75173)
Sequence (O75173 213-837): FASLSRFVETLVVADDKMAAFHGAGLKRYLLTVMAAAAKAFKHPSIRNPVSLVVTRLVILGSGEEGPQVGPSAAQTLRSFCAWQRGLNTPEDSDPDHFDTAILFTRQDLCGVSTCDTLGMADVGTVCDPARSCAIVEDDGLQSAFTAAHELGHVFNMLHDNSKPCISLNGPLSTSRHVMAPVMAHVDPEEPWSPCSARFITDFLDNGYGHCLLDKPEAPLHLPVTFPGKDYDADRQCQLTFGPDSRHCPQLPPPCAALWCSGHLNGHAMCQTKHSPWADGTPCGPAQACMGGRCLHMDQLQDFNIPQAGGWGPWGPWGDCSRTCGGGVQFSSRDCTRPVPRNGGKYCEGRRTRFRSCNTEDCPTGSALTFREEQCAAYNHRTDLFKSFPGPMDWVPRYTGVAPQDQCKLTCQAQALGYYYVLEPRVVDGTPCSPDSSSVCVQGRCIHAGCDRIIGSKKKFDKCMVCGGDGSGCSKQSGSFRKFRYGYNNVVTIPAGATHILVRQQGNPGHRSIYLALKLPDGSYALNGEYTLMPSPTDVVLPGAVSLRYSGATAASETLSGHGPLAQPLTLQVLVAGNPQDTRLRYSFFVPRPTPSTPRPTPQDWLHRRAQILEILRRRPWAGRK
What IC50 was measured for each of the following?

What does the data say about its IC50? Entry: O=C(CO)NCCN([C@]1(C(=O)O)C[C@H]1c1ccccc1)S(=O)(=O)c1ccc(-c2ccc(Cl)cc2)cc1 (relative stereo)
< 1000 nM

What does the data say about its IC50? Entry: O=C(O)[C@]12[C@H](CCN1S(=O)(=O)c1ccc(-c3ccc(Cl)cc3)cc1)[C@H]2c1ccccc1 (relative stereo)
≥ 10000 nM

What does the data say about its IC50? Entry: O=C(O)[C@@]12C[C@]1(c1ccccc1)CCN2S(=O)(=O)c1ccc(-c2ccc(Cl)cc2)s1 (relative stereo)
≥ 1000 nM

What does the data say about its IC50? Entry: O=C(O)c1cccc(CN([C@]2(C(=O)O)C[C@H]2c2ccccc2)S(=O)(=O)N2CCN(c3ccc(Cl)cc3)CC2)c1 (relative stereo)
< 1000 nM

What does the data say about its IC50? Entry: O=C(O)CN([C@]1(C(=O)O)C[C@H]1c1ccccc1Oc1ccccc1)S(=O)(=O)c1ccc(-c2ccc(Cl)cc2)cc1 (relative stereo)
< 100 nM

What does the data say about its IC50? Entry: O=C(O)c1cc(CN(C2(C(=O)O)CC2c2ccccc2)S(=O)(=O)c2ccc(-c3ccc(Cl)cc3)cc2)on1 (stereo not shown)
< 1000 nM

What does the data say about its IC50? Entry: O=C(O)[C@@]12C[C@]1(c1ccccc1)CCCN2S(=O)(=O)c1ccc(-c2ccc(Cl)cc2)s1 (relative stereo)
< 1000 nM

What does the data say about its IC50? Entry: O=C(O)[C@@]1(N(CCNS(=O)(=O)C(F)(F)F)S(=O)(=O)c2ccc(-c3ccc(Cl)cc3)cc2)C[C@H]1c1ccccc1 (relative stereo)
< 1000 nM

What does the data say about its IC50? Entry: O=C(O)[C@@]12C[C@@]1(c1ccccc1)COCN2S(=O)(=O)c1ccc(-c2ccc(Cl)cc2)s1 (relative stereo)
≥ 1000 nM

What does the data say about its IC50? Entry: O=C(O)CN([C@@]1(C(=O)O)C[C@@H]1c1ccccc1)S(=O)(=O)c1ccc(-c2ccc(Cl)cc2)s1
< 1000 nM

What does the data say about its IC50? Entry: O=C(O)c1cccn1CCN([C@]1(C(=O)O)C[C@H]1c1ccccc1)S(=O)(=O)c1ccc(-c2ccc(Cl)cc2)cc1 (relative stereo)
< 1000 nM

What does the data say about its IC50? Entry: O=C(O)CN([C@]1(C(=O)O)C[C@H]1c1cccc(Oc2ccccc2)c1)S(=O)(=O)c1ccc(-c2ccc(Cl)cc2)cc1 (relative stereo)
< 100 nM

What does the data say about its IC50? Entry: CCN(CC)CCNc1cccc([C@@H]2C[C@@]2(C(=O)O)N(Cc2cccc(C(=O)O)c2)S(=O)(=O)c2ccc(-c3ccc(Cl)cc3)cc2)c1 (relative stereo)
< 1000 nM

What does the data say about its IC50? Entry: N#Cc1ccc([C@@H]2C[C@@]2(C(=O)O)N(CC(=O)O)S(=O)(=O)c2ccc(-c3ccc(Cl)cc3)cc2)cc1 (relative stereo)
< 1000 nM

What does the data say about its IC50? Entry: CN([C@]1(C(=O)O)C[C@H]1c1ccccc1)S(=O)(=O)c1ccc(-c2ccc(Cl)cc2)s1
≥ 1000 nM

What does the data say about its IC50? Entry: O=C(O)[C@@]12C[C@]1(c1ccccc1)COC(CO)CN2S(=O)(=O)c1ccc(-c2ccc(Cl)cc2)s1 (relative stereo)
≥ 1000 nM

What does the data say about its IC50? Entry: O=C(O)[C@@]1(N(CCNc2nnn[nH]2)S(=O)(=O)c2ccc(-c3ccc(Cl)cc3)cc2)C[C@H]1c1ccccc1 (relative stereo)
< 1000 nM

What does the data say about its IC50? Entry: Nc1nnn(CCN([C@]2(C(=O)O)C[C@H]2c2ccccc2)S(=O)(=O)N2CCN(c3ccc(C(F)(F)F)cc3)CC2)n1 (relative stereo)
≥ 1000 nM

What does the data say about its IC50? Entry: CN1CCN(C(=O)CN([C@]2(C(=O)O)C[C@H]2c2ccccc2)S(=O)(=O)c2ccc(-c3ccc(Cl)cc3)s2)CC1
≥ 1000 nM

What does the data say about its IC50? Entry: CC(C)(C)OC(=O)NCCN([C@]1(C(=O)O)C[C@H]1c1ccccc1)S(=O)(=O)c1ccc(-c2ccc(Cl)cc2)cc1 (relative stereo)
< 1000 nM

What does the data say about its IC50? Entry: O=C(O)CN([C@]1(C(=O)O)C[C@H]1c1ccccc1)S(=O)(=O)c1ccc(-c2cc(C(F)(F)F)on2)s1
< 100 nM

What does the data say about its IC50? Entry: CC(C)COc1cccc([C@@H]2C[C@@]2(C(=O)O)N(CC(=O)O)S(=O)(=O)c2ccc(-c3ccc(Cl)cc3)cc2)c1 (relative stereo)
< 100 nM
